tested on: T-47D breast; experiment: NCI-60 one-dose screen, 48 h; settings: 10 µM unless noted
This is part of a sample that, as a whole, favours compounds with a hit. Of some 83,000 tested, about 20% had one in any assay. Active and inactive are the calls of the source. The calls were made as follows: active = growth percent below 10; inactive = the rest.
Classes used: YES = active, NO = inactive

>  <Compound>
CCN(CC)CCCC(C)N/C(=C1\C(=O)NC(=O)\C1=C(/NC(C)CCCN(CC)CC)c1cccc(OC)c1)c1cccc(OC)c1 (stereo not given)

>  <Label value>
NO

$$$$
>  <Compound>
CCCCNc1ccc2c3c1cccc3c(=O)n1c3ccccc3nc21

>  <Label value>
NO

$$$$
>  <Compound>
O=c1c2cccc3c(NC4CCCCC4)ccc(c32)c2nc3ccccc3n12

>  <Label value>
NO

$$$$
>  <Compound>
O=C(O)c1cccnc1Br

>  <Label value>
NO

$$$$
>  <Compound>
CN1CCN(c2ccc3nc(-c4ccc5nc(-c6ccc(OCCC(C)(C)C)cc6)[nH]c5c4)[nH]c3c2)CC1

>  <Label value>
NO

$$$$
>  <Compound>
COc1ccc(C(=O)/C=C/c2c(Cl)c3c(c(OC)c2Cl)OCC(=O)N3)cc1

>  <Label value>
NO

$$$$
>  <Compound>
C#Cc1nc(Nc2cc(C)[nH]n2)c2ccccc2n1

>  <Label value>
YES

$$$$
>  <Compound>
COC1C/C(=N\O)C2OC(c3ccccc3)OCC2O1 (stereo not given)

>  <Label value>
NO

$$$$
>  <Compound>
COc1cc2c(c(OC)c1OC)-c1ccc(N=NC(N)=S)c(=O)cc1[C@@H](NC(C)=O)CC2

>  <Label value>
NO

$$$$
>  <Compound>
NS(=O)(=O)N(c1cc(C(F)(F)F)cc(C(F)(F)F)c1)C1CCN(Cc2ccc(F)cc2)CC1

>  <Label value>
NO

$$$$
>  <Compound>
O=C1C=CC(=O)c2c1nc1n2CCCC1

>  <Label value>
NO

$$$$
>  <Compound>
Cc1nn(-c2nc3ccccc3[nH]2)c2c1C(c1ccc3c(c1)OCO3)CC(=O)N2 (stereo not given)

>  <Label value>
NO

$$$$
>  <Compound>
COc1ccc(C/C(C)=C(\c2ccc(Cl)cc2)c2ccc(OCCN3CCCCCC3)cc2)cc1

>  <Label value>
NO

$$$$
>  <Compound>
COC(=O)C12C3C(=O)N(c4ccc(OC)cc4)C(=O)C3C(c3cn(-c4ccccc4)nc3C)N1[C@H](c1cn(-c3ccccc3)nc1C)[C@@H]1C(=O)N(c3ccc(OC)cc3)C(=O)[C@@H]12 (stereo not given in full)

>  <Label value>
NO

$$$$
>  <Compound>
CCN1CCN(Cc2ccc(NC(=O)Nc3nc4ccc(Oc5ccnc(C(=O)NC)c5)cc4s3)cc2C(F)(F)F)CC1

>  <Label value>
YES

$$$$
>  <Compound>
O=C(CN1CCN(c2cc3c(cc2F)c(=O)c(C(=O)O)cn3C2CC2)CC1)Nc1nc(-c2ccccc2)cs1

>  <Label value>
NO

$$$$
>  <Compound>
CCN(CC)CCCNc1cc(OC)cc2nc3cc(Cl)ccc3nc12

>  <Label value>
NO

$$$$
>  <Compound>
CN1CCN(Cc2ccc(NC(=O)c3[nH]ncc3Nc3ccnc4ccsc34)cc2)CC1

>  <Label value>
NO

$$$$
>  <Compound>
COc1cnc2c(c1)C(=O)c1c-2n(CCCN2CCNCC2)c(=O)c2cc([N+](=O)[O-])ccc12

>  <Label value>
YES

$$$$
>  <Compound>
S=c1[nH]nc(CSc2ncnc3c2c(-c2ccccc2)cn3-c2ccc(Cl)cc2)o1

>  <Label value>
NO

$$$$
>  <Compound>
OC(c1cccc(C(F)(F)F)c1)c1cnccc1NC1CCCCCC1 (stereo not given)

>  <Label value>
YES

$$$$
>  <Compound>
COc1ccc(-c2cn3c(-c4ccc(OC)cc4)cnc3c(Oc3ccc4c(C)cc(=O)oc4c3)n2)cc1

>  <Label value>
NO

$$$$
>  <Compound>
O=C(O)c1ccc(=O)[nH]n1

>  <Label value>
NO

$$$$
>  <Compound>
COCCOc1ccc(-c2nc3ccc(-c4nc5ccc(N6CCN(C)CC6)cc5[nH]4)cc3[nH]2)cc1

>  <Label value>
YES

$$$$
>  <Compound>
NC1=CC(=O)C(=O)c2ccccc21

>  <Label value>
NO

$$$$
>  <Compound>
CCCCOc1ccc(NC(=O)n2nc(NC(C)=O)c3cc(NC(C)=O)ccc32)cc1

>  <Label value>
NO

$$$$
>  <Compound>
Cc1ccc2c(c1)C(=O)/C(=C/c1ccc(OCC(=O)c3ccccc3)cc1)O2

>  <Label value>
NO

$$$$
>  <Compound>
CCCNc1nc(SC)nc(-c2cccc(N)c2)c1C#N

>  <Label value>
NO

$$$$
>  <Compound>
CC/C=C\C[C@H](O)C/C=C1/C(=O)C=C[C@@H]1C/C=C\CCCC(N)=O

>  <Label value>
YES

$$$$
>  <Compound>
COc1ccc(C2c3ccc4ccccc4c3Oc3ncnc(N)c32)cc1 (stereo not given)

>  <Label value>
NO

$$$$
>  <Compound>
CCCCCCCCCC(=O)Oc1ccc(/C(=C(/C)Cc2cccc(OC)c2)c2ccc(OCCN(C)C)cc2)cc1

>  <Label value>
NO

$$$$
>  <Compound>
CNCCCn1c2c(c3ccc([N+](=O)[O-])cc3c1=O)C(=O)c1cc(OC)cnc1-2

>  <Label value>
YES

$$$$
>  <Compound>
Cc1nc2sc(C(=O)Nc3cccc4c3OCCO4)c(N)c2cc1C(C)O (stereo not given)

>  <Label value>
YES

$$$$
>  <Compound>
O=C1c2cc3c(cc2-c2c1c1cc(F)c(F)cc1c(=O)n2C[C@H](O)CO)OCO3

>  <Label value>
YES

$$$$
>  <Compound>
O=C1C[C@H](N2C(=O)c3ccccc3S2(=O)=O)C2CO[C@@H]1O2

>  <Label value>
NO

$$$$
>  <Compound>
CC[C@@H](C)OC(=O)c1nn(C(C)=O)c2ccccc12

>  <Label value>
NO

$$$$
>  <Compound>
c1ccc(Sc2ncnc3ccccc23)cc1

>  <Label value>
NO

$$$$
>  <Compound>
c1ccc2c(Nc3cccc4ccccc34)cccc2c1

>  <Label value>
NO

$$$$
>  <Compound>
CCCN(CCC)CN(CCC)CCC

>  <Label value>
NO

$$$$
>  <Compound>
CC(C)(C)n1cc(-c2ccnc(NCCNS(=O)(=O)c3ccccc3)c2)c(-c2cccc(O)c2)n1

>  <Label value>
NO

$$$$
